test system: human umbilical vein endothelial cells (HUVECs); experiment: HUVEC proliferation assay (WST-1), 2- and 4-day, 5,000 cells per well; format: cell-based; conditions: 2 days of peptide application

{"columns": ["Primary sequence", "anti-proliferative activity in words"],
 "data": [
  ["TEWSACSKTCGMGISTRV [SEQ ID NO: 41, CTGF CAC44023.1: 204-221]", "low"]
]}

###

test system: human umbilical vein endothelial cells (HUVECs); test: HUVEC proliferation assay (WST-1), 2- and 4-day, 5,000 cells per well; assay type: cell-based; details: 2- and 4-day assay, day not specified
Endpoint: peptide concentration at which maximum activity was observed (µg/mL)

{"columns": ["Primary sequence", "Measured target", "Reported"],
 "data": [
  ["NGKKACLNPASPMVQKIIEKIL [SEQ ID NO: 106, GRO-γ/MIP-2β/CXCL3 AAA63184.1: 79-100]", "human umbilical vein endothelial cells (HUVECs)", 0.01],
  ["QPWSQCSATCGDGVRERRR [SEQ ID NO: 64, THSD1 AAQ88516.1: 347-365]", "human umbilical vein endothelial cells (HUVECs)", 0.01],
  ["SPWSKCSAACGQTGVQTRTR [SEQ ID NO: 39, CILP AAQ89263.1: 156-175]", "human umbilical vein endothelial cells (HUVECs)", 1],
  ["WTRCSSSCGRGVSVRSR [SEQ ID NO: 66, THSD6 AAH40620.1: 44-60]", "human umbilical vein endothelial cells (HUVECs)", 0.1],
  ["TSWSQCSKTCGTGISTRV [SEQ ID NO: 42, CYR61 AAR05446.1: 234-251]", "human umbilical vein endothelial cells (HUVECs)", 0.01],
  ["TEWTACSKSCGMGFSTRV [SEQ ID NO: 46, NOVH AAL92490.1: 211-228]", "human umbilical vein endothelial cells (HUVECs)", 0.01],
  ["GPWEPCSVTCSKGTRTRRR [SEQ ID NO: 49, Properdin AAP43692.1: 143-161]", "human umbilical vein endothelial cells (HUVECs)", 0.01]
]}

###

Tested on: human umbilical vein endothelial cells (HUVECs)
Assay: HUVEC proliferation assay (WST-1), 2- and 4-day, 5,000 cells per well
Type: cell-based
Conditions: 4 days of peptide application; 0.01-10 μg/ml
Protocol: The effect of the various peptides on cell proliferation was assayed, by administering the peptides to human umbilical vein endothelial cells (HUVECs) in culture. […] The activity of each polypeptide was, therefore, expressed as a percentage of TNP-470 activity, i.e., the optical density obtained experimentally is scaled such that the negative control is 0% and the positive control is 100% as explained below (FIG. 4). […]
# if value of anti-proliferative activity (maximum or stated level), scaled so that TNP-470 = 100% reaches 20%, tag true; if it stays below, tag false

{"columns": ["Primary sequence", "Class assignment"],
 "data": [
  ["SPWSQCTASCGGGVQTR [SEQ ID NO: 24, ADAMTS-16 Q8TE57: 1133-1149]", "true"],
  ["GPWGDCSRTCGGGVQFSSR [SEQ ID NO: 7, ADAMTS-4 CAH72146.1: 527-545]", "true"],
  ["WDECSATCGMGMKKRHR [SEQ ID NO: 72, VSGP/F-spondin BAB18461.1: 567-583]", "false"],
  ["TEWSACSKTCGMGISTRV [SEQ ID NO: 41, CTGF CAC44023.1: 204-221]", "true"],
  ["SPWSQCSVRCGRGQRSRQVR [SEQ ID NO: 69, TSRC1 AAH27478.1: 140-159]", "true"],
  ["TQWTSCSKTCNSGTQSRHR [SEQ ID NO: 38, C6 AAB59433.1: 30-48]", "true"],
  ["GPWGECSRTCGGGVQFSHR [SEQ ID NO: 14, ADAMTS-8 Q9UP79: 534-552]", "true"],
  ["NGKKACLNPASPMVQKIIEKIL [SEQ ID NO: 106, GRO-γ/MIP-2β/CXCL3 AAA63184.1: 79-100]", "false"],
  ["YCNINEVCHYARRNDKSYWL [SEQ ID NO: 93, α6CIV CAI40758.1: 1526-1545]", "false"]
]}

Values from patent US9187539B2
